target: Atrial natriuretic peptide receptor 3 (Rattus norvegicus); assay: Agonist activity at NPRC in rat aorta assessed as vasorelaxation by Organ bath assay; type: tissue-based
Sequence (P41740 whole entry): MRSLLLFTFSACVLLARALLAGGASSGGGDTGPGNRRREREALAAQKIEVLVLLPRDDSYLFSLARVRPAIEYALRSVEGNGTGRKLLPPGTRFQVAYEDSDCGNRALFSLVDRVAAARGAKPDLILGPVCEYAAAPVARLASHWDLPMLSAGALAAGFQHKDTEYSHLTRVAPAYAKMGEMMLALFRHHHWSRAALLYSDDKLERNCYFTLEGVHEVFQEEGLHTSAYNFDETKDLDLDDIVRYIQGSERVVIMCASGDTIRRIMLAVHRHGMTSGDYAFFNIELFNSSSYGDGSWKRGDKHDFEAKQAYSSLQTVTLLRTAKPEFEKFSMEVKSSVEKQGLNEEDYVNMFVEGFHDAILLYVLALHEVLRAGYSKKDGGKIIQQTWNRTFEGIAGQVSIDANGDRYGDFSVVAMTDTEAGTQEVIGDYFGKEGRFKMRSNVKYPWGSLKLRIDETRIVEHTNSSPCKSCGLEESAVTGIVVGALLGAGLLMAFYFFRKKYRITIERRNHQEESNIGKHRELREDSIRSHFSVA
So basically: is EC50 under 6 µM? Then Fulfilled. Not under? Then Not fulfilled.

Solved entries:
CC(=O)Nc1ccc(Nc2ncnc(N[C@@H](CCc3ccccc3)C(=O)OC(C)(C)C)n2)cc1 :: Fulfilled
CC(=O)Nc1ccc(Nc2ncnc(N[C@@H](C)C(=O)OC(C)(C)C)n2)cc1 :: Not fulfilled
CC(=O)Nc1ccc(Nc2ncnc(N[C@@H](CC(C)C)C(=O)O)n2)cc1 :: Not fulfilled

Say whether its EC50 is strictly beneath 6 µM. Entry: "CC(=O)Nc1ccc(Nc2ncnc(NCCC(=O)OC(C)(C)C)n2)cc1"
Not fulfilled

Lab note: confirm whether the reported EC50 for this molecule is below 6 µM, equality not counting. molecule: "CC(=O)Nc1ccc(Nc2ncnc(N[C@@H](Cc3ccc(F)cc3)C(=O)OC(C)(C)C)n2)cc1"
Fulfilled

Please check: EC50 for "CC(=O)Nc1ccc(Nc2ncnc(N[C@H](C(=O)OC(C)(C)C)C3CCCCC3)n2)cc1" , strictly under 6 µM or not?
Not fulfilled

Take the molecule "COC(=O)[C@H](CC(C)C)Nc1nc(Cl)nc(N[C@H]2CC[C@H](Nc3nc(Cl)nc(N[C@@H](CC(C)C)C(=O)OC)n3)CC2)n1" and say whether its EC50 is less than 6 µM.
Fulfilled

---

Target: Atrial natriuretic peptide receptor 3 (Mus musculus)
Sequence (P70180 whole entry): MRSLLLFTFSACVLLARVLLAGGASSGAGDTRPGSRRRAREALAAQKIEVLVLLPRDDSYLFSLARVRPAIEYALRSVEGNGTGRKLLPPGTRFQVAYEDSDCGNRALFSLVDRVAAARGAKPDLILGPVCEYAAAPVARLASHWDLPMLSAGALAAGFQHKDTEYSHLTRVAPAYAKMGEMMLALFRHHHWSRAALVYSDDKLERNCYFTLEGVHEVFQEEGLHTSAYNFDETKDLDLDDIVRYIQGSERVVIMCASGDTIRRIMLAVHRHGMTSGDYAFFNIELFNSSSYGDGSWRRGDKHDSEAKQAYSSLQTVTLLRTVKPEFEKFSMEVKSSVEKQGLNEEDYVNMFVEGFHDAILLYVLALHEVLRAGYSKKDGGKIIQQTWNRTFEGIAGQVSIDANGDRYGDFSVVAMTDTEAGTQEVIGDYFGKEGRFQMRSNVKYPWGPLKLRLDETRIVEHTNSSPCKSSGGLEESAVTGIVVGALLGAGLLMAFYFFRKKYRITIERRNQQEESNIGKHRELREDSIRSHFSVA
Assay: Agonist activity at NPRC in knock out mouse mesenteric arteries assessed as vasorelaxation by Organ bath assay
Assay type: tissue-based, Artery
Hi there, I'd appreciate the recorded pEC50 for every entry that follows.
Answers are plain numbers, as −log10 of the molar value.

CC(=O)Nc1ccc(Nc2ncnc(NCCC(=O)OC(C)(C)C)n2)cc1 :: 5.00

GET /values?readout=pEC50&item= "COC(=O)[C@H](CC(C)C)Nc1nc(Cl)nc(N[C@H]2CC[C@H](Nc3nc(Cl)nc(N[C@@H](CC(C)C)C(=O)OC)n3)CC2)n1"
5.58

---

test: Mean residence time (0 to infinity) in fasted C57BL/6 mouse at 10 mg/kg, po by LC-MS/MS analysis; settings: in vivo
endpoint_name: MRT inf
Answer by giving the amount and then stating its unit.

Can you share its MRT inf? I mean this compound: "CC(=O)Nc1ccc(Nc2ncnc(NCCC(=O)OC(C)(C)C)n2)cc1"
1.33 h
